run-description: RMC-7977 levels in KPCY allograft tumor tissue
Format: in vivo
condition-notes: C57Bl/6, mouse, oral, 10 mg/kg
endpoint: half-life (h)

{"columns": ["chemical-string", "endpoint", "endpoint-result"],
 "data": [
  ["CCn1c(-c2cc(N3CCN(C4CC4)CC3)cnc2[C@H](C)OC)c2c3cc(ccc31)-c1csc(n1)C[C@H](NC(=O)[C@H]1[C@@H]3COC[C@@H]31)C(=O)N1CCC[C@H](N1)C(=O)OCC(C)(C)C2", "half-life", 3.5]
]}

###

run-description: Tumor versus blood concentrations, all model systems tested
Assay type: in vivo
condition-notes: BALB/c, C57Bl/6, KPF/FC, mouse, tumor vs whole blood, oral, read-out: Kp (concentration in tumor tissues vs blood)
endpoint: Kp

{"columns": ["chemical-string", "endpoint-result"],
 "data": [
  ["CCn1c(-c2cc(N3CCN(C4CC4)CC3)cnc2[C@H](C)OC)c2c3cc(ccc31)-c1csc(n1)C[C@H](NC(=O)[C@H]1[C@@H]3COC[C@@H]31)C(=O)N1CCC[C@H](N1)C(=O)OCC(C)(C)C2", "> 1"]
]}
